- Test system: anaesthesized rats
- assay-remarks: wheal test, intradermal injection
- Assay type: in vivo, rat
- run-parameters: 10 ug peptide intradermally
Non-standard residues stand in square brackets, D forms with d. Residues, ends and D or L forms follow the SMILES beside them. *: point of attachment. dPhe(4-Cl) = N[C@H](Cc1ccc(Cl)cc1)C(=O)O; d2Nal = N[C@H](Cc1ccc2ccccc2c1)C(=O)O; Lys(iPr) = CC(C)NCCCC[C@H](N)C(=O)O; d3Pal = N[C@H](Cc1cccnc1)C(=O)O; Picolinoyl = O=C(c1ccccn1)*; dAbu = CC[C@@H](N)C(=O)O

compound: CC[C@@H](NC(=O)[C@@H]1CCCN1C(=O)[C@H](CCCCNC(C)C)NC(=O)[C@H](CC(C)C)NC(=O)[C@@H](CCCCNC(=O)c1ccccn1)NC(=O)[C@H](CCCCNC(=O)c1ccccn1)NC(=O)[C@H](CO)NC(=O)[C@@H](Cc1cccnc1)NC(=O)[C@@H](Cc1ccc(Cl)cc1)NC(=O)[C@@H](Cc1ccc2ccccc2c1)NC(C)=O)C(N)=O [compound 26019] (Ac-[d2Nal][dPhe(4-Cl)][d3Pal]SK(Picolinoyl)[dK](Picolinoyl)L[Lys(iPr)]P[dAbu]-NH2)
target-or-test-system: anaesthesized rats
Wheal Area [mm^2 /10 μg]: 109.9

* * *

- Test system: anaesthesized rats
- assay-remarks: wheal test, intradermal injection
- Type: in vivo, rat
- run-parameters: 10 ug peptide intradermally
Non-standard residues stand in square brackets, D forms with d. Residues, ends and D or L forms follow the SMILES beside them. *: point of attachment. dAla(cis-4-NHCOPyz-cHex) = N[C@H](C[C@H]1CC[C@@H](NC(=O)c2cnccn2)CC1)C(=O)O; dPhe(4-Cl) = N[C@H](Cc1ccc(Cl)cc1)C(=O)O; d2Nal = N[C@H](Cc1ccc2ccccc2c1)C(=O)O; Lys(iPr) = CC(C)NCCCC[C@H](N)C(=O)O; Orn(iPr) = CC(C)NCCC[C@H](N)C(=O)O; aIle = CC[C@@H](C)[C@H](N)C(=O)O; d3Pal = N[C@H](Cc1cccnc1)C(=O)O; NMeL = CN[C@@H](CC(C)C)C(=O)O; Nicotinoyl = O=C(c1cccnc1)*; Picolinoyl = O=C(c1ccccn1)*
reported-property: Wheal Area (mm^2 /10 μg)

compound: CC(=O)N[C@H](Cc1ccc2ccccc2c1)C(=O)N[C@H](Cc1ccc(Cl)cc1)C(=O)N[C@H](Cc1cccnc1)C(=O)N[C@@H](CO)C(=O)N[C@@H](Cc1ccc(O)cc1)C(=O)N[C@H](CCCCNC(=O)c1ccccn1)C(=O)N[C@@H](CC(C)C)C(=O)N[C@@H](CCCNC(C)C)C(=O)N1CCC[C@H]1C(=O)N[C@H](C)C(N)=O [compound 26363] (Ac-[d2Nal][dPhe(4-Cl)][d3Pal]SY[dK](Picolinoyl)L[Orn(iPr)]P[dA]-NH2)
target-or-test-system: anaesthesized rats
result: 113.2

compound: CCNC(=O)[C@@H]1CCCN1C(=O)[C@H](CCCCNC(C)C)NC(=O)[C@H](CC(C)C)NC(=O)[C@@H](C[C@H]1CC[C@@H](NC(=O)c2cnccn2)CC1)NC(=O)[C@H](CCCCNC(=O)c1ccccn1)NC(=O)[C@H](CO)NC(=O)[C@@H](Cc1cccnc1)NC(=O)[C@@H](Cc1ccc(Cl)cc1)NC(=O)[C@@H](Cc1ccc2ccccc2c1)NC(C)=O [compound 26383] (Ac-[d2Nal][dPhe(4-Cl)][d3Pal]SK(Picolinoyl)[dAla(cis-4-NHCOPyz-cHex)]L[Lys(iPr)]P-NHEt)
target-or-test-system: anaesthesized rats
result: 119.6

compound: CC(=O)N[C@H](Cc1ccc2ccccc2c1)C(=O)N[C@H](Cc1ccc(Cl)cc1)C(=O)N[C@H](Cc1cccnc1)C(=O)N[C@@H](CO)C(=O)N[C@@H](CCCCNC(=O)c1ccccn1)C(=O)N[C@H](C[C@H]1CC[C@@H](NC(=O)c2cnccn2)CC1)C(=O)N[C@@H](CC(C)C)C(=O)N[C@@H](CCCCNC(C)C)C(=O)N1CCC[C@H]1C(=O)N[C@H](C)C(N)=O [IBR 25897] (Ac-[d2Nal][dPhe(4-Cl)][d3Pal]SK(Picolinoyl)[dAla(cis-4-NHCOPyz-cHex)]L[Lys(iPr)]P[dA]-NH2)
target-or-test-system: anaesthesized rats
result: 122.8

compound: CC(=O)N[C@H](Cc1ccc2ccccc2c1)C(=O)N[C@H](Cc1ccc(Cl)cc1)C(=O)N[C@H](Cc1cccnc1)C(=O)N[C@@H](CO)C(=O)N[C@@H](CCCCNC(=O)c1cccnc1)C(=O)N[C@H](CCCCNC(=O)c1cccnc1)C(=O)N(C)[C@@H](CC(C)C)C(=O)N[C@@H](CCCCNC(C)C)C(=O)N1CCC[C@H]1C(=O)N[C@H](C)C(N)=O [compound 26345] (Ac-[d2Nal][dPhe(4-Cl)][d3Pal]SK(Nicotinoyl)[dK](Nicotinoyl)[NMeL][Lys(iPr)]P[dA]-NH2)
target-or-test-system: anaesthesized rats
result: 110.5

compound: CC[C@@H](C)[C@H](NC(=O)[C@@H](CCCCNC(=O)c1ccccn1)NC(=O)[C@H](CCCCNC(=O)c1ccccn1)NC(=O)[C@H](CO)NC(=O)[C@@H](Cc1cccnc1)NC(=O)[C@@H](Cc1ccc(Cl)cc1)NC(=O)[C@@H](Cc1ccc2ccccc2c1)NC(C)=O)C(=O)N[C@@H](CCCCNC(C)C)C(=O)N1CCC[C@H]1C(=O)N[C@H](C)C(N)=O [compound 25936] (Ac-[d2Nal][dPhe(4-Cl)][d3Pal]SK(Picolinoyl)[dK](Picolinoyl)[aIle][Lys(iPr)]P[dA]-NH2)
target-or-test-system: anaesthesized rats
result: 97.9

* * *

- Test system: anaesthesized rats
- assay-remarks: wheal test, intradermal injection
- Format: in vivo, rat
- run-parameters: 10 ug peptide intradermally
Starred links: 1 amine or outer side, 2 acyl side, 3 side chain; linkers in the order of their positions; H or OH if unused. Non-standard residues stand in square brackets, D forms with d. Residues, ends and D or L forms follow the SMILES beside them. *: point of attachment. dPhe(4-Cl) = N[C@H](Cc1ccc(Cl)cc1)C(=O)O; X10 = O=C([C@@H](Cc1cnccn1)N[*:1])[*:2]; d2Nal = N[C@H](Cc1ccc2ccccc2c1)C(=O)O; Lys(iPr) = CC(C)NCCCC[C@H](N)C(=O)O; Orn(iPr) = CC(C)NCCC[C@H](N)C(=O)O; Pyrazinecarbonyl = O=C(c1cnccn1)*; d3Pal = N[C@H](Cc1cccnc1)C(=O)O; Cit = NC(=O)NCCC[C@H](N)C(=O)O; Nicotinoyl = O=C(c1cccnc1)*; Picolinoyl = O=C(c1ccccn1)*; Abu = CC[C@H](N)C(=O)O
Listed below: Wheal Area values for each entry.
reported-property: Wheal Area

compound: CC[C@H](NC(=O)[C@@H](CCCCNC(=O)c1ccccn1)NC(=O)[C@H](CCCCNC(=O)c1ccccn1)NC(=O)[C@H](CO)NC(=O)[C@@H](Cc1cccnc1)NC(=O)[C@@H](Cc1ccc(Cl)cc1)NC(=O)[C@@H](Cc1ccc2ccccc2c1)NC(C)=O)C(=O)N[C@@H](CCCCNC(C)C)C(=O)N1CCC[C@H]1C(=O)N[C@H](C)C(N)=O [compound 25990] (Ac-[d2Nal][dPhe(4-Cl)][d3Pal]SK(Picolinoyl)[dK](Picolinoyl)[Abu][Lys(iPr)]P[dA]-NH2)
target-or-test-system: anaesthesized rats
result: 91.0 ± 5.4 mm^2 /10 μg
--
compound: CC[C@H](NC(=O)[C@@H](CCCCNC(=O)c1ccccn1)NC(=O)[C@H](CCCNC(N)=O)NC(=O)[C@H](CO)NC(=O)[C@@H](Cc1cccnc1)NC(=O)[C@@H](Cc1ccc(Cl)cc1)NC(=O)[C@@H](Cc1ccc2ccccc2c1)NC(C)=O)C(=O)N[C@@H](CCCCNC(C)C)C(=O)N1CCC[C@H]1C(=O)N[C@H](C)C(N)=O [compound 26382] (Ac-[d2Nal][dPhe(4-Cl)][d3Pal]S[Cit][dK](Picolinoyl)[Abu][Lys(iPr)]P[dA]-NH2)
target-or-test-system: anaesthesized rats
result: 89.5 ± 5.5 mm^2 /10 μg
--
compound: CC(=O)N[C@H](Cc1ccc2ccccc2c1)C(=O)N[C@H](Cc1ccc(Cl)cc1)C(=O)N[C@H](Cc1cccnc1)C(=O)N[C@@H](CO)C(=O)N[C@@H](CCCCNC(=O)c1cccnc1)C(=O)N[C@H](CCCCNC(=O)c1cnccn1)C(=O)N[C@@H](CC(C)C)C(=O)N[C@@H](CCCNC(C)C)C(=O)N1CCC[C@H]1C(=O)N[C@H](C)C(N)=O [compound 25991] (Ac-[d2Nal][dPhe(4-Cl)][d3Pal]SK(Nicotinoyl)[dK](Pyrazinecarbonyl)L[Orn(iPr)]P[dA]-NH2)
target-or-test-system: anaesthesized rats
result: 104.3 ± 10.5 mm^2 /10 μg
--
compound: CC(=O)N[C@H](Cc1ccc2ccccc2c1)C(=O)N[C@H](Cc1ccc(Cl)cc1)C(=O)N[C@H](Cc1cnccn1)C(=O)N[C@@H](CO)C(=O)N[C@@H](CCCCNC(=O)c1ccccn1)C(=O)N[C@H](CCCCNC(=O)c1ccccn1)C(=O)N[C@@H](CC(C)C)C(=O)N[C@@H](CCCNC(C)C)C(=O)N1CCC[C@H]1C(=O)N[C@H](C)C(N)=O [compound 26119] (Ac-[d2Nal][dPhe(4-Cl)][X10]SK(Picolinoyl)[dK](Picolinoyl)L[Orn(iPr)]P[dA]-NH2)
target-or-test-system: anaesthesized rats
result: 103.9 ± 3.4 mm^2 /10 μg
--
compound: CC(=O)N[C@H](Cc1ccc2ccccc2c1)C(=O)N[C@H](Cc1ccc(Cl)cc1)C(=O)N[C@H](Cc1cccnc1)C(=O)N[C@@H](CO)C(=O)N[C@@H](CCCCNC(=O)c1ccccn1)C(=O)N[C@H](CCCCNC(=O)c1ccccn1)C(=O)N[C@@H](C)C(=O)N[C@@H](CCCCNC(C)C)C(=O)N1CCC[C@H]1C(=O)N[C@H](C)C(N)=O [compound 26099] (Ac-[d2Nal][dPhe(4-Cl)][d3Pal]SK(Picolinoyl)[dK](Picolinoyl)A[Lys(iPr)]P[dA]-NH2)
target-or-test-system: anaesthesized rats
result: 103.9 ± 3.7 mm^2 /10 μg
